System: Plasmodium falciparum Sir2 (PF13_0152, Sir2A)
Protocol Notes: Plasmodium falciparum Sir2A binding compounds – biochemical, small-molecule microarray, 635 nm fluorescence, primary screen (AID 1098);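 also: score merges spot fluorescence intensity with its signal-to-noise ratio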
Experimental Setup: fluorescence 635 nm, higher = more signal
Exercise: state measured composite z-score for each of the compounds provided.
Answers are plain numbers.

// known answers, use as guide
CC(C)[Si]1(C(C)C)OCc2cc(C3CC3)nc(-c3ccc(Oc4ccccc4)cc3)c21 : -0.777
CC(C)[Si]1(C(C)C)OCc2cc(-c3ccc(-c4ccc(Cl)c(Cl)c4)o3)nc(-c3ccccc3)c21 : 1.33
O=C(O)[C@@H]1C[C@@H]2C(=O)N3CCC[C@H]3C(=O)N2[C@@H]1c1ccc(O)cc1 : 1.51
C[C@@H]1NC(=O)[C@@H](Cc2ccccc2)NC(=O)[C@@]23C(=O)N[C@@H](Cc4ccccc4)C2[C@H](C)[C@@]2(C)O[C@H]2C3/C=C/C/C=C\CNC1=O (stereo partly specified) : 1.02
CCCCC(=C=CC[C@H](O)c1ccc(OCCO)cc1)CCO : 0.69

We next turn to a different compound, shown below.
# get_value(readout='composite z-score', item= CCCC[C@@H](O)C1=C(COc2ccccc2)C[C@H]2C(=O)N(Cc3ccccc3)C(=O)[C@H]2[C@H]1CO )
0.146

----------
Protocol Notes: FRG1 expression reporter modulators in myotubes – cell-based, C2C12 myotubes, firefly/Renilla luciferase, luminescence, FRG1 inhibition for FSHD, primary screen (AID 1084)
Experimental Setup: FRG1 promoter luciferase, higher = more signal, called active from +8 up or from −8 down
Attribute Measured: z-score
Give bare numbers.

Reference set (3 entries):
[N-]=[N+]=Nc1ccccc1C[C@@]1(C(N)=O)N=C(c2ccc(OCCCO)cc2)O[C@@H]1c1ccccc1N=[N+]=[N-] : 0.0144
COc1ccc(C#Cc2ccc3c(c2)[C@]2(C(=O)N3)[C@H](C(=O)O)[C@H]3C(=O)O[C@H](c4ccccc4)[C@H](c4ccccc4)N3[C@@H]2c2ccc(O)cc2)cc1 : 0.247
COC(=O)[C@]1(CCS(=O)(=O)c2ccccc2)N=C(c2ccc(OCCCO)cc2)O[C@@H]1c1ccccc1N=[N+]=[N-] : 1.89

Would you mind listing z-score for each of the following molecules?
1. O=C1C2C=CC(C(O)c3ccco3)N(Nc3ccccc3F)C2C(=O)N1c1ccccc1 (stereo unspecified)
2. O=C1OCCC=C[C@H]2OC34C=CCN(Cn5nnc6ccccc65)C(=O)[C@H]3N(CCCO)C(=O)[C@@H]4C12 (stereo partly specified)
3. CC(=O)N1CC2(CC2)CC1c1ccccc1 (stereo unspecified)
4. COc1cc(C(O)C2C=CC3C(=O)N(C)C(=O)C3N2Nc2ccccc2)cc(OC)c1OC (stereo unspecified)

1. 0.793
2. 0.0397
3. 2.2
4. -0.818

Report z-score for each item below.
1. COC(=O)[C@@H]1N=C(c2ccc(OCCCO)cc2)O[C@@H]1c1ccccc1
2. CCCCCN1CC=CC23O[C@@H]4/C=C\CCCOC(=O)C4[C@H]2C(=O)N(C(C)CO)[C@@H]3C1=O (stereo partly specified)
3. C#Cc1cc2ccccc2oc1=O
4. COc1ccc([Si](C)(C)[C@@H]2[C@@H](CCO)O[C@]3(C(=O)N(Cc4ccccc4)c4ccc(NC(=O)[C@H](C)O)cc43)[C@H]2C)cc1

1: 7.16; 2: -0.508; 3: 1.35; 4: -3.84
